test: AUC in beagle dog at 40 mg, po dosed as phase 2 tablet measured up to 24 hrs; assay type: ADME, organism-based, Canis lupus familiaris; set-up: route oral, dose 40 mg, time <=24; conditions: in vivo
assay-metric: AUC (ng·h/mL)
Give the quantity in ng·h/mL, number only.

Data request: Entry COC(=O)N[C@H](C(=O)N1CCC[C@H]1c1nc2cc([C@H]3CC[C@H](c4cc5nc([C@@H]6CCCN6C(=O)[C@@H](NC(=O)OC)[C@@H](C)OC)[nH]c5cc4F)N3c3cc(F)c(N4CCC(c5ccc(F)cc5)CC4)c(F)c3)c(F)cc2[nH]1)[C@@H](C)OC [PIBRENTASVIR] has what AUC?
Data returned: 2730

###

assay: Half life of compound at pH 7.4 at 125 ug/ml at 37 degC by HPLC analysis; type: physicochemical; conditions: dose 125 µg/ml
assay-metric: half-life at 125 ug/ml

Data request: Entry "COC(=O)N[C@H](C(=O)N1CCC[C@H]1c1nc2cc(F)c([C@H]3CC[C@H](c4cc5nc([C@@H]6CCCN6C(=O)[C@@H](NC(=O)OC)[C@@H](C)OC)n(COC(=O)[C@@H](NC(=O)COP(=O)(O)O)C(C)C)c5cc4F)N3c3cc(F)c(N4CCC(c5ccc(F)cc5)CC4)c(F)c3)cc2[nH]1)[C@@H](C)OC" has what half-life at 125 ug/ml?
Data returned: < 24 h

Data request: Entry "COC(=O)N[C@H](C(=O)N1CCC[C@H]1c1nc2cc(F)c([C@H]3CC[C@H](c4cc5nc([C@@H]6CCCN6C(=O)[C@@H](NC(=O)OC)[C@@H](C)OC)n(COP(=O)(O)O)c5cc4F)N3c3cc(F)c(N4CCC(c5ccc(F)cc5)CC4)c(F)c3)cc2[nH]1)[C@@H](C)OC" has what half-life at 125 ug/ml?
Data returned: > 72 h

Data request: Entry "COC(=O)N[C@H](C(=O)N1CCC[C@H]1c1nc2cc(F)c([C@H]3CC[C@H](c4cc5c(cc4F)nc([C@@H]4CCCN4C(=O)[C@@H](NC(=O)OC)[C@@H](C)OC)n5COC(=O)[C@@H](NC(=O)OCOP(=O)(O)O)C(C)C)N3c3cc(F)c(N4CCC(c5ccc(F)cc5)CC4)c(F)c3)cc2[nH]1)[C@@H](C)OC" has what half-life at 125 ug/ml?
Data returned: < 24 h

Data request: Entry "COC(=O)N[C@H](C(=O)N1CCC[C@H]1c1nc2cc(F)c([C@H]3CC[C@H](c4cc5nc([C@@H]6CCCN6C(=O)[C@@H](NC(=O)OC)[C@@H](C)OC)n(COC(=O)CC(C)(C)c6c(C)cc(C)cc6OP(=O)(O)O)c5cc4F)N3c3cc(F)c(N4CCC(c5ccc(F)cc5)CC4)c(F)c3)cc2[nH]1)[C@@H](C)OC" has what half-life at 125 ug/ml?
Data returned: > 72 h

Data request: Entry "COC(=O)N[C@H](C(=O)N1CCC[C@H]1c1nc2cc(F)c([C@H]3CC[C@H](c4cc5nc([C@@H]6CCCN6C(=O)[C@@H](NC(=O)OC)[C@@H](C)OC)n(COC(=O)Cc6ccc(OP(=O)(O)O)cc6)c5cc4F)N3c3cc(F)c(N4CCC(c5ccc(F)cc5)CC4)c(F)c3)cc2[nH]1)[C@@H](C)OC" has what half-life at 125 ug/ml?
Data returned: > 24 h

###

Exercise: for every item that follows, state its recorded solubility thermodynamic.
test: Equilibrium solubility of compound at pH 7.4 incubated for 24 to 48 hrs by HPLC analysis; format: physicochemical; settings: buffer, time 24-48 hrs

Data request: Entry "COC(=O)N[C@H](C(=O)N1CCC[C@H]1c1nc2cc(F)c([C@H]3CC[C@H](c4cc5nc([C@@H]6CCCN6C(=O)[C@@H](NC(=O)OC)[C@@H](C)OC)n(COC(=O)[C@@H](NC(=O)OCOP(=O)(O)O)C(C)C)c5cc4F)N3c3cc(F)c(N4CCC(c5ccc(F)cc5)CC4)c(F)c3)cc2[nH]1)[C@@H](C)OC" has what solubility thermodynamic?
Data returned: < 0.1 µg/mL

Data request: Entry "COC(=O)N[C@H](C(=O)N1CCC[C@H]1c1nc2cc(F)c([C@H]3CC[C@H](c4cc5nc([C@@H]6CCCN6C(=O)[C@@H](NC(=O)OC)[C@@H](C)OC)n(COC(=O)[C@@H](N)C(C)C)c5cc4F)N3c3cc(F)c(N4CCC(c5ccc(F)cc5)CC4)c(F)c3)cc2[nH]1)[C@@H](C)OC" has what solubility thermodynamic?
Data returned: < 0.1 µg/mL

Data request: Entry "COC(=O)N[C@H](C(=O)N1CCC[C@H]1c1nc2cc(F)c([C@H]3CC[C@H](c4cc5c(cc4F)nc([C@@H]4CCCN4C(=O)[C@@H](NC(=O)OC)[C@@H](C)OC)n5COC(=O)[C@@H](NC(=O)OCOP(=O)(O)O)C(C)C)N3c3cc(F)c(N4CCC(c5ccc(F)cc5)CC4)c(F)c3)cc2[nH]1)[C@@H](C)OC" has what solubility thermodynamic?
Data returned: > 1000 µg/mL

###

assay: Stability of compound at pH 7.4 assessed as prodrug remaining level at 125 ug/ml incubated for 24 hrs by HPLC analysis; assay type: physicochemical; conditions: buffer, pH 7.4, 24 h, at 125 µg/mL
assay-metric: Stabilty
Report as: number unit

Data request: Entry "COC(=O)N[C@H](C(=O)N1CCC[C@H]1c1nc2cc(F)c([C@H]3CC[C@H](c4cc5nc([C@@H]6CCCN6C(=O)[C@@H](NC(=O)OC)[C@@H](C)OC)n(COC(=O)Cc6ccccc6OP(=O)(O)O)c5cc4F)N3c3cc(F)c(N4CCC(c5ccc(F)cc5)CC4)c(F)c3)cc2[nH]1)[C@@H](C)OC" has what Stabilty?
Data returned: 28%

Data request: Entry "COC(=O)N[C@H](C(=O)N1CCC[C@H]1c1nc2cc(F)c([C@H]3CC[C@H](c4cc5nc([C@@H]6CCCN6C(=O)[C@@H](NC(=O)OC)[C@@H](C)OC)n(COC(=O)c6ccccc6COP(=O)(O)O)c5cc4F)N3c3cc(F)c(N4CCC(c5ccc(F)cc5)CC4)c(F)c3)cc2[nH]1)[C@@H](C)OC" has what Stabilty?
Data returned: 89%

###

Exercise: for every item that follows, state its recorded AUC at 24 h.
assay: AUC in CD1 mouse at 6 mg/kg, po measured up to 24 hrs; assay type: ADME, organism-based; set-up: route oral, dose 6 mg/kg, time <=24; conditions: in vivo
Give the quantity in ng·h/mL, number only.

Data request: Entry COC(=O)N[C@H](C(=O)N1CCC[C@H]1c1nc2cc([C@H]3CC[C@H](c4cc5nc([C@@H]6CCCN6C(=O)[C@@H](NC(=O)OC)[C@@H](C)OC)[nH]c5cc4F)N3c3cc(F)c(N4CCC(c5ccc(F)cc5)CC4)c(F)c3)c(F)cc2[nH]1)[C@@H](C)OC [PIBRENTASVIR] has what AUC at 24 h?
Data returned: 6720

Data request: Entry "COC(=O)N[C@H](C(=O)N1CCC[C@H]1c1nc2cc(F)c([C@H]3CC[C@H](c4cc5nc([C@@H]6CCCN6C(=O)[C@@H](NC(=O)OC)[C@@H](C)OC)n(COC(=O)[C@@H](NC(=O)/C=C/C(=O)O)C(C)C)c5cc4F)N3c3cc(F)c(N4CCC(c5ccc(F)cc5)CC4)c(F)c3)cc2[nH]1)[C@@H](C)OC" has what AUC at 24 h?
Data returned: 354

###

assay: AUC in CD1 mouse assessed as pibrentasvir1 level at 6 mg/kg, po measured up to 24 hrs; format: ADME, organism-based; set-up: route oral, dose 6 mg/kg, time <=24; conditions: in vivo
Exercise: for every item that follows, state its recorded AUC.
Give the quantity in ng·h/mL, number only.

Data request: Entry COC(=O)N[C@H](C(=O)N1CCC[C@H]1c1nc2cc([C@H]3CC[C@H](c4cc5nc([C@@H]6CCCN6C(=O)[C@@H](NC(=O)OC)[C@@H](C)OC)[nH]c5cc4F)N3c3cc(F)c(N4CCC(c5ccc(F)cc5)CC4)c(F)c3)c(F)cc2[nH]1)[C@@H](C)OC [PIBRENTASVIR] has what AUC?
Data returned: 6720

Data request: Entry "COC(=O)N[C@H](C(=O)N1CCC[C@H]1c1nc2cc(F)c([C@H]3CC[C@H](c4cc5c(cc4F)nc([C@@H]4CCCN4C(=O)[C@@H](NC(=O)OC)[C@@H](C)OC)n5COC(=O)N(C)c4ncccc4COP(=O)(O)O)N3c3cc(F)c(N4CCC(c5ccc(F)cc5)CC4)c(F)c3)cc2[nH]1)[C@@H](C)OC" has what AUC?
Data returned: 9750
